Each item that follows carries a reported IC50.
# TARGET OF ASSAY: DCN1-like protein 1 (Homo sapiens, UniProt Q96GG9)
# Sequence (Q96GG9 whole entry): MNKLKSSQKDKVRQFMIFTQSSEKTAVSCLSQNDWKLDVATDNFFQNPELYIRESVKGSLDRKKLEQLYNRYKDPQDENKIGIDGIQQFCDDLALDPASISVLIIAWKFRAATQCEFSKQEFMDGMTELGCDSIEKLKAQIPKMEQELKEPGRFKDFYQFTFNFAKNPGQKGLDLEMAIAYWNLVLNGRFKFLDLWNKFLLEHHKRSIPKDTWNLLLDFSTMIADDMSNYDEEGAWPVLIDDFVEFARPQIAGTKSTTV
# TEST DESCRIPTION: TR-FRET Assay (1 hour)
# Description: The DCN1 protein was biotinylated (EZ sulfo-NHS-LC-biotin; Thermofisher) for labeling with streptavidin terbium (Tb) cryptate in the reaction. […] The TR-FRET ratio between Tb-DCN1 and the FAM-labeled probe was measured in a 384-well opti-plate (Perkin Elmer) using a plate reader (BMG) at 1 hour after treatment with compound (final DMSO concentration of 0.1%).
MEASUREMENT TYPE: IC50

C=C(CN(C)C1COC1)C(=O)NCc1cccc([C@@H]2c3cnn(-c4ccccc4)c3N(CC)C(=O)[C@H]2NC(=O)c2ccn(C(F)(F)F)n2)c1: < 200 nM
C=CS(=O)(=O)Nc1cccc([C@H]2c3c(C)nn(-c4ccccc4)c3N(CC)C(=O)[C@@H]2NC(=O)c2cccc(C(F)(F)F)c2)c1 (racemic): < 200 nM
C=C(CN1CCOCC1)C(=O)NCc1cccc([C@@H]2c3cnn(-c4ccccc4)c3N(CC)C(=O)[C@H]2NC(=O)c2ccn(C3CC3)n2)c1: < 200 nM
CCN1C(=O)[C@@H](NC(=O)c2nccc(C(F)(F)F)n2)[C@H](c2cccc(C(=O)N3C[C@H](F)C[C@H]3C#N)c2)c2cnn(-c3ccccc3)c21: 1000 to 3000 nM
